Test system: U-937 human lymphoma cells
Experiment: 72 Hour IC50 Cell Death Assay (sulforhodamine B)
Assay type: cell-based
Conditions: read-out: 72-hour IC50 (μM), U-937 cells, 72 h treatment, average ± SEM of three experiments
Value type: IC50 (µM)
Give the number; µM is assumed, so skip it.

For the compound shown here, COc1ccc(CN2CCN(CC(=O)N/N=C/c3cc(C(C)(C)C)cc(C(C)(C)C)c3O)CC2)cc1 , give the reported IC50. 1.8

Fill in the blank: the reported IC50 of CC(C)(C)c1cc(/C=N/NC(=O)CN2CCN(Cc3ccc4ccccc4c3)CC2)c(O)c(C(C)(C)C)c1 is ____. 1

Reported IC50, compound CC(C)(C)c1cc(/C=N/NC(=O)CN2CCN(Cc3ccc(OCc4ccccc4)cc3)CC2)c(O)c(C(C)(C)C)c1 : ____ 1.4

// lookup IC50 for COc1ccc(OC)c(CN2CCN(CC(=O)N/N=C/c3cc(C(C)(C)C)cc(C(C)(C)C)c3O)CC2)c1 1.6

Query: IC50; subject: CCc1ccc(CN2CCN(CC(=O)N/N=C/c3cc(C(C)(C)C)cc(C(C)(C)C)c3O)CC2)cc1 2

Quick check: IC50 of C=CCc1cccc(/C=N/NC(=O)CN2CCN(Cc3ccccc3)CC2)c1O ? 3.8

Quick one: IC50 of C=CCc1cccc(/C=N/NC(=O)CN2CCN(Cc3ccc(C(C)(C)C)cc3)CC2)c1O ? 0.9
